# Test system: SH-SY5Y human neuroblastoma cells
# test.description: MTT cytotoxicity assay, SH-SY5Y
# Format: cell-based
# experimental.parameters: mean ± SD, read-out: Cytotoxic activity IC50, SH-SY5Y
endpoint: IC50 (µM)
Return type: number; implicit unit µM.

Would you mind telling me what IC50 value was observed for O=C(NCCS(=O)(=O)N1CCOCC1)c1ccc(Cl)cc1 [Compound 6] ?
80.6

====

# System: PANC-1 human pancreatic cancer cells
# test.description: MTT cytotoxicity assay, PANC-1
# Type: cell-based
# experimental.parameters: MTT, mean ± SD, read-out: Cytotoxic activity IC50, PANC-1
endpoint: IC50

For PANC-1 human pancreatic cancer cells, provide IC50 of O=C(NCCS(=O)(=O)Nc1ccccc1)c1ccc(Cl)cc1 please.
86.6 µM
